Target: CDK8/CyclinC (Homo sapiens, UniProt P49336)
Construct: purchased ProQinase, Freiburg, Germany
Sequence (P49336 whole entry): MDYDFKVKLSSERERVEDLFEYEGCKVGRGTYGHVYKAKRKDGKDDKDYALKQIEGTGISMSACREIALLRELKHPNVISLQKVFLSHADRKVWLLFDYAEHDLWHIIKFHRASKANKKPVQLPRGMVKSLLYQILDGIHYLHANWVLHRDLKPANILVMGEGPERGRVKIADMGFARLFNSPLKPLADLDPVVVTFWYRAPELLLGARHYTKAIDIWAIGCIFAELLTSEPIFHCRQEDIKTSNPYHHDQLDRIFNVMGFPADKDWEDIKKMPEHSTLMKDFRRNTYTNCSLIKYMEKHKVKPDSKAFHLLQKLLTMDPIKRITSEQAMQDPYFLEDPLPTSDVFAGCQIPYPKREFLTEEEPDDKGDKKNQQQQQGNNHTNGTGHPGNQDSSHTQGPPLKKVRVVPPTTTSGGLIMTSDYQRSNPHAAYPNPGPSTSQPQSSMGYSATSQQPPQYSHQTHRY
Sequence (P24863 whole entry partner): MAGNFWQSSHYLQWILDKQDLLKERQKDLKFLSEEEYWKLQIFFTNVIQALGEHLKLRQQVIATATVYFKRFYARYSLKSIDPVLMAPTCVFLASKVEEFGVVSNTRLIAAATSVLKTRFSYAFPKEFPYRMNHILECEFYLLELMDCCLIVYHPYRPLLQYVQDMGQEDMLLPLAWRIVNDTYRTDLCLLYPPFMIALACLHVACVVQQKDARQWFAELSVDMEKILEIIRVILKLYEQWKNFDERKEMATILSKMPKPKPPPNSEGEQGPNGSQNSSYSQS
Experiment: ADP-Glo Kinase Assay, CDK8/CyclinC; note: ATP at apparent Km (53 µM)
Assay type: biochemical
Conditions: read-out: % inhibition at 1 μM CDK8/CyclinC
Counter-ions that a name gives are not always drawn.
result-type: inhibition at 1 µM (%)

| molecule | inhibition at 1 µM, % |
| --- | --- |
| NCCNc1nc2c(Br)c(Br)c(Br)c3c2n1CCC3 [Example 1A, hydrochloride] | 52 |
| C[C@H]1CN(c2nc3c(I)c(Br)c(Br)c4c3n2CCC4)CCN1 [Example 3T] | 90 |
| OC1CCN(c2nc3c(I)c(Br)c(Br)c4c3n2CCC4)CC1 [Example 3AO] | 93 |
| Brc1c(Br)c2c3c(nc(Nc4ccccc4)n3CCC2)c1Br [Example 3C] | 59 |
| Brc1c(Br)c2c3c(nc(C4CCNCC4)n3CCC2)c1Br [Example 7E] | 94 |
| CC1(C)CN(c2nc3c(I)c(Br)c(Br)c4c3n2CCC4)CCN1 [Example 3W] | 92 |
| Brc1c(Br)c2c3c(nc(N4CCNCC4)n3CCC2)c1Br [Example 6, maleate] | 96 |

I: Nc1nc2c(I)c(Br)c(Br)c3c2n1CCC3 [Example 3Y]
II: C[C@@H]1CN(c2nc3c(I)c(Br)c(Br)c4c3n2CCC4)CCN1 [Example 3AD]
When the recorded inhibition at 1 µM values are compared, which is smaller: that of I or that of II ? To answer, give the label that identifies your chosen option.
I

====

Test system: HCT116 cells
Assay: MTS viability assay, HCT116
Type: cell-based
Conditions: Homo sapiens, HCT-116, HCT116, 72 hour incubation, read-out: IC50 [μM] HCT116 ED50
result-type: IC50 (µM)

Worked examples, 5 molecules total:
| molecule | measured-on | IC50, µM |
| --- | --- | --- |
| Cc1c(Br)c(Br)c2c3c1nc(N1CC[C@@H](N)C1)n3CCC2 | HCT116 cells | 1.7 |
| CC1CN(c2nc3c(Br)c(Br)c(Br)c4c3n2CCC4)CCN1 (stereo not drawn) | HCT116 cells | 9.3 |
| Cc1c(Br)c(Br)c2nc(N3CCNCC3)n3c2c1CCC3 | HCT116 cells | 1.7 |
| Cc1c(Br)c(Br)c2c3c1nc(C1CCNCC1)n3CCC2 | HCT116 cells | 1.1 |
| CCN(CC)c1nc2c(Br)c(Br)c(Br)c3c2n1CCC3 | HCT116 cells | 6.8 |

A: NC1CCN(c2nc3c(Br)c(Br)c(Br)c4c3n2CCC4)CC1
B: CN(C)CCNc1nc2c(Br)c(Br)c(Br)c3c2n1CCC3
When the recorded IC50 values are compared, which is smaller: that of A or that of B ? To answer, give the label that identifies your chosen option.
A
(A: 1.3 µM, B: 2.2 µM)

a: NC1CCCN(c2nc3c(Br)c(Br)c(Br)c4c3n2CCC4)CC1 (stereo not drawn)
b: N[C@@H]1CCN(c2nc3c(Br)c(Br)c(Br)c4c3n2CCC4)C1
When the recorded IC50 values are compared, which is smaller: that of a or that of b ? To answer, give the label that identifies your chosen option.
b
(b: 0.3 µM, a: 1.1 µM)

====

Molecular target: CDK2/CyclinE (Homo sapiens)
Construct: purchased Millipore, Billerica, Mass., USA
Experiment: ADP-Glo Kinase Assay, CDK2/CyclinE
Type: biochemical
Details: read-out: % inhibition at 1 μM CDK2/CyclinE
result-type: inhibition at 1 µM (%)

Worked examples, 2 compounds total:
| compound | result-type | value |
| --- | --- | --- |
| Cc1c(Br)c(Br)c2c3c1nc(N1CCNC(C)C1)n3CCC2 (centres unmarked) | inhibition at 1 µM | 0 |
| NCCNc1nc2c(I)c(Br)c(Br)c3c2n1CCC3 | inhibition at 1 µM | 0 |

P: CC1(C)CN(c2nc3c(I)c(Br)c(Br)c4c3n2CCC4)CCN1
Q: CCN(CC)c1nc2c(Br)c(Br)c(Br)c3c2n1CCC3
R: C[C@@H]1CN(c2nc3c(I)c(Br)c(Br)c4c3n2CCC4)CCN1
Arrange the 3 compounds by rising inhibition at 1 µM, starting with the smallest. Please respond by ranking the labels in the order requested.
Q, P, R

====

Biological target: CDK2/CyclinE (Homo sapiens)
Construct: purchased Millipore, Billerica, Mass., USA
Experiment: ADP-Glo Kinase Assay, CDK2/CyclinE
Type: biochemical
Details: read-out: % inhibition at 1 μM CDK2/CyclinE
result-type: inhibition at 1 µM (%)

Worked examples, 6 molecules total:
| molecule | measured-on | result-units | inhibition at 1 µM |
| --- | --- | --- | --- |
| Brc1c(Br)c2c3c(nc(N[C@H]4CCCNC4)n3CCC2)c1Br [Example 1AW] | CDK2/CyclinE (Homo sapiens) | % | 0 |
| CN1CCN(c2nc3c(Br)c(Br)c(Br)c4c3n2CCC4)CC1 [Example 3M] | CDK2/CyclinE (Homo sapiens) | % | 2 |
| NC1CCN(c2nc3c(Br)c(Br)c(Br)c4c3n2CCC4)CC1 [Example 1AG] | CDK2/CyclinE (Homo sapiens) | % | 33 |
| Nc1nc2c(Br)c(Br)c(Br)c3c2n1CCC3 [Example 3J] | CDK2/CyclinE (Homo sapiens) | % | 1 |
| CC1CNCCN1c1nc2c(Br)c(Br)c(Br)c3c2n1CCC3 (centres unmarked) [Example 1E] | CDK2/CyclinE (Homo sapiens) | % | 2 |
| C[C@@H]1CN(c2nc3c(Br)c(Br)c(Br)c4c3n2CCC4)CCN1 [Example 3AB] | CDK2/CyclinE (Homo sapiens) | % | 27 |

1: COC1CCN(c2nc3c(Br)c(Br)c(Br)c4c3n2CCC4)CC1 [Example 4A]
2: C[C@H]1CN(c2nc3c(I)c(Br)c(Br)c4c3n2CCC4)CCN1 [Example 3T]
Choose between 1 and 2 : whose measured inhibition at 1 µM value is numerically larger? To answer, give the label that identifies your chosen option.
2
(2: 17%, 1: 8%)

I: CC1CCCN1c1nc2c(I)c(Br)c(Br)c3c2n1CCC3 (centres unmarked) [Example 3S]
II: CN1CCN(c2nc3c(I)c(Br)c(Br)c4c3n2CCC4)CC1 [Example 3AM]
III: Brc1c(Br)c2c3c(nc(NC4CCCCC4)n3CCC2)c1Br [Example 3E]
IV: Brc1c(Br)c2c3c(nc(N4CCNCC4)n3CCC2)c1I [Example 1Y]
V: Cc1c(Br)c(Br)c2c3c1nc(N1CCNCC1)n3CCC2 [Example 1K]
Arrange the 5 molecules by rising inhibition at 1 µM, starting with the smallest. Please respond by ranking the labels in the order requested.
V, III, I, IV, II
(V: 0%, III: 3%, I: 7%, IV: 11%, II: 40%)

====

Molecular target: CDK5/p25 (Homo sapiens, UniProt Q00535)
Construct: purchased Millipore, Billerica, Mass., USA
Sequence (Q00535 whole entry): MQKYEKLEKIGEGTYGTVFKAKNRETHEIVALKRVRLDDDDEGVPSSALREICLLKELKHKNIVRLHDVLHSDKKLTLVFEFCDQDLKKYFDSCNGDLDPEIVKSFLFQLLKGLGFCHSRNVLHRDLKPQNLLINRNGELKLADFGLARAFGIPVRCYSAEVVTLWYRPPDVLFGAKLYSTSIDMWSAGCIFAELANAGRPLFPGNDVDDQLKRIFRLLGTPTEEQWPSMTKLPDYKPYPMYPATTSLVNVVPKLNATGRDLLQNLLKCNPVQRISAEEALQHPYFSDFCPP
Sequence (Q15078 99-307 partner limits assumed): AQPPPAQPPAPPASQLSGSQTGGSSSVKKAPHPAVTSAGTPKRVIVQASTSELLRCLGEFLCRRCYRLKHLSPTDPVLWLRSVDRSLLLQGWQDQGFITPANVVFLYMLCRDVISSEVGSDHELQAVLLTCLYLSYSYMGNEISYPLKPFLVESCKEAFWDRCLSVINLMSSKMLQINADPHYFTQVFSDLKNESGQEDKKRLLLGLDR
Test: ADP-Glo Kinase Assay, CDK5/p25; note: ATP at apparent Km (12 µM)
Format: biochemical
Conditions: read-out: % inhibition at 1 μM CDK5/p25
Counter-ions that a name gives are not always drawn.
result-type: inhibition at 1 µM (%)

Worked examples, 6 compounds total:
| compound | result-units | inhibition at 1 µM |
| --- | --- | --- |
| Cc1c(Br)c(Br)c2c3c1nc(C1CCN(C)CC1)n3CCC2 [Example 7A, hydrochloride] | % | 0 |
| Cc1c(Br)c(Br)c2c3c1nc(N1CCNCC1)n3CCC2 | % | 13 |
| Cc1c(Br)c(Br)c2c3c1nc(C1CCNCC1)n3CCC2 | % | 0 |
| Brc1c(Br)c2c3c(nc(C4CCNCC4)n3CCC2)c1Br | % | 5 |
| Nc1nc2c(Br)c(Br)c(Br)c3c2n1CCC3 | % | 53 |
| CC1CCCN1c1nc2c(Br)c(Br)c(Br)c3c2n1CCC3 (stereo not shown) | % | 4 |

P: Brc1c(Br)c2c3c(nc(N4CCNCC4)n3CCC2)c1Br [Example 6, maleate]
Q: CC1CN(c2nc3c(Br)c(Br)c(Br)c4c3n2CCC4)CCN1 (stereo not shown)
R: CCN(CC)c1nc2c(Br)c(Br)c(Br)c3c2n1CCC3
Rank entries according to their inhibition at 1 µM, from the largest number down. Please respond by ranking the labels in the order requested.
P, R, Q
(P: 39%, R: 14%, Q: 0%)

A: CN1CCN(c2nc3c(Br)c(Br)c(Br)c4c3n2CCC4)CC1
B: Brc1c(Br)c2c3c(nc(N4CCCCC4)n3CCC2)c1Br
C: NCCNc1nc2c(I)c(Br)c(Br)c3c2n1CCC3
Rank entries according to their inhibition at 1 µM, from the largest number down. Please respond by ranking the labels in the order requested.
A, C, B
(A: 36%, C: 2%, B: 0%)
